biological target: Human CA XIV (Homo sapiens); assay: CA catalyzed CO2 hydration stopped-flow assay, CA XIV; settings: read-out: IC50 CA XIV; Table 2; recombinant human CA XIV, stopped-flow CO2 hydration
pIC50: −log10 of the molar value.
outcome_measure: pIC50

- compound: "O=C(CS(=O)(=O)c1ccc(-c2ccccc2)cc1)NO [Compound 3]"
  tested_on: "Human CA XIV (Homo sapiens)"
  reported_measurement: 5.07

====

molecular target: Human CA XIV (Homo sapiens, UniProt Q9ULX7); assay: CA catalyzed CO2 hydration stopped-flow assay, CA XIV
Sequence (Q9ULX7 16-337): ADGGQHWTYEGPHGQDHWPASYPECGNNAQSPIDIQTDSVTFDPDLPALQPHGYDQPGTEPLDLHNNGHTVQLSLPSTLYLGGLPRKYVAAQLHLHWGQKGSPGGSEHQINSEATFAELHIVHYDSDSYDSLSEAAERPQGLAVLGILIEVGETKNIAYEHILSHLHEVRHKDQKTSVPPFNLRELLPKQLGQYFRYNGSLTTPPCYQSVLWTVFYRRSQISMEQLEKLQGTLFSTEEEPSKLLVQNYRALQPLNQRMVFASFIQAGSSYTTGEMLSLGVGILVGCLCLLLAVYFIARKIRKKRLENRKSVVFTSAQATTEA
pIC50: −log10 of the molar value.

- compound: "COc1ccc(-c2ccc(S(=O)(=O)C(Cc3ccccc3)P(=O)(O)O)cc2)cc1 (stereo not shown)"
  pIC50: 5.13

====

target: UniProt P00918; experiment: CA catalyzed CO2 hydration stopped-flow assay, CA II; conditions: read-out: IC50 CA II; Table 2; recombinant human CA II, stopped-flow CO2 hydration
pIC50: −log10 of the molar value.
outcome_measure: pIC50

- compound: "O=C(CS(=O)(=O)c1ccc(-c2ccccc2)cc1)NO [Compound 3]"
  reported_measurement: 5.44

====

target: UniProt:Q16790; test: CA catalyzed CO2 hydration stopped-flow assay, CA IX; settings: read-out: IC50 CA IX, rounded value
outcome_measure: IC50 (µM)

- compound: "O=C(CS(=O)(=O)c1ccc(-c2ccccc2)cc1)NO [Compound 3]"
  outcome_measure: "IC50"
  units_text: "µM"
  reported_measurement: 0.5
